Test system: Canis familiaris
Assay: Area under curve by oral administration at a dose of 10 uM/kg in dog was determined
Format: ADME, organism-based, Canis lupus familiaris
Conditions: in vivo
measured.metric: AUC (ng·h/mL)
Please give a number only; it is taken to be in ng·h/mL.

The reported AUC of the compound CN(C[C@@H](CCN1CCC(c2ccccc2[S@+](C)[O-])CC1)c1ccc(Cl)c(Cl)c1)C(=O)c1cc(C#N)cc2ccccc12 (stereo in doubt) was 2000

====

The listing below reports Ki for compounds tested on Substance-K receptor (Homo sapiens, UniProt P21452).
Sequence (P21452 whole entry): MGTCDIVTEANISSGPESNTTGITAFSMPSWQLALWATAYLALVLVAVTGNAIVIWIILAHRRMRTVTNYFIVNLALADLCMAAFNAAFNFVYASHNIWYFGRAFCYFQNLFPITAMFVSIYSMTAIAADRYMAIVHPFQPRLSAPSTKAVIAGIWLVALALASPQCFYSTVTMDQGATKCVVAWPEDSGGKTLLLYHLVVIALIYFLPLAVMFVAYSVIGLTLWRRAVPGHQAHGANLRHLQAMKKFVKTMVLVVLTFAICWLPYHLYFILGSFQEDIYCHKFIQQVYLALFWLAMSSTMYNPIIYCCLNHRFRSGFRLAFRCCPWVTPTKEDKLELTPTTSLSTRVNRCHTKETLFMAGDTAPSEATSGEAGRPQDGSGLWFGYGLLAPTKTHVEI
Please give a number only; it is taken to be in nM.

[[record]]
compound = "COc1cc(C(=O)N2CC[C@](CCN3CCC(C(N)=O)(c4ccccc4)CC3)(c3ccc(Cl)c(Cl)c3)C2)cc(OC)c1OC"
recorded_result = 1


Then there is this compound:
Response field Ki (Substance-K receptor (Homo sapiens, UniProt P21452)) for item CN(C[C@@H](CCN1CCC(c2ccccc2[S@+](C)[O-])CC1)c1ccc(Cl)c(Cl)c1)C(=O)c1cc(C#N)cc2ccccc12 (stereo in doubt) : 0.6
